test system: U2OS; test: Multiplex assay against U2OS; type: toxicity, cell-based; conditions: human, 24 h, 1 µM, compound concentration 1 uM, replicate 2
property.label: Population Apoptotic (%)
// return numeric value only (unit: %, not printed)

Some entries whose results are on file:
## Task Provide Population Apoptotic (%), tested on U2OS, for `COc1cc2c(Nc3ccc(NC(=O)c4ccccc4)cc3)ncnc2cc1OCCCN1CCOCC1` .
## Result 26

## Task Provide Population Apoptotic (%), tested on U2OS, for `CC(=O)c1cc(-c2cc(C(=O)NC3CC3)ccc2C)c2ncccn12` .
## Result 0

***
## Task Provide Population Apoptotic (%), tested on U2OS, for N#Cc1cnc(Nc2cc(NC[C@H]3CNCCO3)c(C(F)(F)F)cn2)cn1 [SRA-737] .
## Result 0

## Task Provide Population Apoptotic (%), tested on U2OS, for CC(C)Oc1ccc(C(=O)N[C@H](CNC(=O)CN(C)C)Cc2ccc(-c3cn4cccc([C@H](C)O)c4n3)cc2)cc1Cl [GSK-923295A] .
## Result 29

## Task Provide Population Apoptotic (%), tested on U2OS, for O=C(O)c1ccc2cc(-c3ccc(O)c(C45CC6CC(CC(C6)C4)C5)c3)ccc2c1 [O-DEMETHYLATED ADAPALENE] .
## Result 100

## Task Provide Population Apoptotic (%), tested on U2OS, for CCOc1cc2ncc(C#N)c(Nc3ccc(OCc4cccc(F)c4)c(Cl)c3)c2cc1NC(=O)/C=C/CN(C)C [HKI-357] .
## Result 45

## Task Provide Population Apoptotic (%), tested on U2OS, for Cc1nc(Cc2cccc(C(F)(F)F)c2)sc1-c1ccc(C(N)=O)nc1 [TP-024n] .
## Result 50

## Task Provide Population Apoptotic (%), tested on U2OS, for `CCOc1cc(N2CCC(O)CC2)ccc1Nc1ncc2c(n1)N(C1CCCC1)CCC(=O)N2C` .
## Result 60

## Task Provide Population Apoptotic (%), tested on U2OS, for CCC(=O)O[C@]1(C(=O)SCF)[C@H](C)C[C@H]2[C@@H]3C[C@H](F)C4=CC(=O)C=C[C@]4(C)[C@@]3(F)[C@@H](O)C[C@@]21C [FLUTICASONE PROPIONATE] .
## Result 16

* * *

tested on: HEK-293T; assay: Multiplex assay against HEK293T; type: toxicity, cell-based; conditions: human, 12 h, 10 µM, compound concentration 10 uM, replicate 2
property.label: Population Mitotic Cells (%)
// return numeric value only (unit: %, not printed)

Some entries whose results are on file:
## Task Report Population Mitotic Cells (%) for `Nc1ccc(C(=O)Nc2cccc(-c3nc(N4CCOCC4)c4oc5ncccc5c4n3)c2)cn1`
## Result 46

## Task Report Population Mitotic Cells (%) for `Cl.Cl.NC1(c2ccc(-c3nc4ccn5c(=O)[nH]nc5c4cc3-c3ccccc3)cc2)CCC1`
## Result 85

## Task Report Population Mitotic Cells (%) for CC(C)(C)c1cnc(CSc2cnc(NC(=O)C3CCNCC3)s2)o1 [BMS-387032]
## Result 75

## Task Report Population Mitotic Cells (%) for `COc1ccc(NS(=O)(=O)c2sc3ccc(Cl)cc3c2C)cc1N1CCNCC1.Cl`
## Result 42

## Task Report Population Mitotic Cells (%) for Cc1nc(Cc2cccc(C(F)(F)F)c2)sc1-c1ccc(C(N)=O)nc1 [TP-024n]
## Result 75

## Task Report Population Mitotic Cells (%) for CCn1c(-c2nonc2N)nc2cnc(Oc3cccc(NC(=O)c4ccc(OCCN5CCOCC5)cc4)c3)cc21 [GSK-269962A]
## Result 45

## Task Report Population Mitotic Cells (%) for `COc1cc2c(Nc3ccc(NC(=O)c4ccccc4)cc3)ncnc2cc1OCCCN1CCOCC1`
## Result 93

## Task Report Population Mitotic Cells (%) for `Cl.Cl.Nc1ncnc2c1c(-c1cccc(OCc3ccccc3)c1)cn2[C@H]1C[C@@H](CN2CCC2)C1`
## Result 4

## Task Report Population Mitotic Cells (%) for `Nc1nc2c(c(N3CCNCC3)n1)CCC1=C2[C@@H]2CCCC[C@@H]2O1`
## Result 41

In the following, a different molecule is considered.
## Task Report Population Mitotic Cells (%) for CNC(=O)c1cc(Oc2ccc(NC(=O)Nc3cc(C(C)(C)C)nn3-c3ccc4ncccc4c3)c(F)c2)ccn1 [REBASTINIB]
## Result 64
